Taken from ChEMBL document CHEMBL4130539.

Recorded Stability for the following compounds
Experiment: Metabolic stability in rat liver microsomes assessed as parent compound remaining at 10 uM preincubated for 10 mins followed by NADPH addition measured after 30 mins by liquid chromatographic method
Format: ADME, microsome
Settings: 0.5 h
Give the value, in units of %, as a plain number.

Would you please look over these solved cases?
# MOL_SMILES, Stability (%)
measured = [
    ("N#Cc1ccc(C[C@@H](NC(=O)Nc2ccc(F)cc2)C(=O)NCC2(c3ccc(OC(F)(F)F)cc3)CC2)cc1", 88),
    ("COc1ccc(NC(=O)N[C@@H](Cc2c[nH]c3ccccc23)C(=O)NCC2(c3ccccc3)CC2)cc1", 3),
    ("COc1ccc(NC(=O)N[C@H](Cc2c[nH]c3ccccc23)C(=O)NCC2(c3ccccc3)CC2)cc1", 4),
]

Would you kindly share the measured Stability for Cc1ccc(C2(CNC(=O)[C@@H](Cc3ccc(C#N)cc3)NC(=O)Nc3ccc(F)cc3)CC2)cc1F ?
37

Recorded Stability of N#Cc1ccc(C[C@H](NC(=O)Nc2ccc(F)cc2)C(=O)NCC2(c3ccc(OC(F)(F)F)cc3)CC2)cc1 , please.
80

Fill blank: measured Stability of the compound COc1ccc(NC(=O)N[C@@H](Cc2ccc(C#N)cc2)C(=O)NCC2(c3ccc(C)c(F)c3)CC2)cc1 is ____.
8

Data request, read-out Stability, for COc1ccc(NC(=O)N[C@@H](Cc2c[nH]c3ccccc23)C(=O)NCC2(c3ccc(OC)cn3)CCCCC2)cc1
4

Name the reported Stability value associated with the compound COc1ccc(NC(=O)N[C@H](Cc2ccc(C#N)cc2)C(=O)NCC2(c3ccc(F)c(Cl)c3)CC2)cc1
5
